So I've got a bunch of variants here, and I need their FACS-Seq fitted mean (log10) values.
B1: library; a variant is named by its letters at N, in order (parent)
chain: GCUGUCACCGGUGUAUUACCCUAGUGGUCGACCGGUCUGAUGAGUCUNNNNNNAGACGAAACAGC

# Variants of: B1
# assay: FACS-Seq fitted mean relative fluorescence mCherry/BFP without ligand (log10 relative fluorescence); ligand: hypoxanthine (xanthine aptamer); higher = higher reporter protein expression
# particulars: HEK293T, ligand present: no
Format: numeric value only, no unit, no commentary.

Problem: Please give the measured FACS-Seq fitted mean (log10) for this variant: `GGGACG`
Result: 0.352

Problem: Let us now turn to `AGUGAU`
Result: 0.509

Problem: Let us now turn to `CGCAAA`
Result: 0.57

Problem: Let us now turn to `GUAAGC`
Result: 0.302

Problem: Let us now turn to `UGUGUG`
Result: 0.266

Problem: Let us now turn to `CGCGGG`
Result: 0.374

Problem: Let us now turn to `AAUUUG`
Result: 0.3

Problem: Let us now turn to `UUUAUU`
Result: 0.761

Problem: Let us now turn to `GAGUUG`
Result: 0.0221

Problem: Let us now turn to `UCCAAA`
Result: 0.00132

Problem: Let us now turn to `CUAGAU`
Result: -0.176

Problem: Let us now turn to `GUAAUC`
Result: 0.801

Problem: Let us now turn to `GGUUGG`
Result: -0.0305

Problem: Let us now turn to `GGACUG`
Result: 0.544

Problem: Let us now turn to `UCAAAG`
Result: -0.374

Problem: Let us now turn to `UACAAG`
Result: 0.335

Problem: Let us now turn to `AUGGCG`
Result: 0.211

Problem: Let us now turn to `GACUUG`
Result: 0.475

Problem: Let us now turn to `AAGUGA`
Result: -0.0239

Problem: Let us now turn to `CAAGUC`
Result: 0.736

Problem: Let us now turn to `AAAAAG`
Result: 0.286

Problem: Let us now turn to `AGCGCU`
Result: 0.228

Problem: Let us now turn to `AAAGAU`
Result: 0.523

Problem: Let us now turn to `AGUGUA`
Result: -0.349

Problem: Let us now turn to `AUGUAG`
Result: -0.0834

Problem: Let us now turn to `CCCAAG`
Result: 0.293

Problem: Let us now turn to `GGGGAG`
Result: -0.274

Problem: Let us now turn to `AAGAUU`
Result: -0.294

Problem: Let us now turn to `GAAAAU`
Result: 0.558

Problem: Let us now turn to `AAGUAC`
Result: 0.425

Problem: Let us now turn to `GCUAUG`
Result: 0.086

Problem: Let us now turn to `UAUGAC`
Result: 0.282

Problem: Let us now turn to `CAUUGA`
Result: 0.221

Problem: Let us now turn to `GAUUGU`
Result: 0.452

Problem: Let us now turn to `AAAACG`
Result: 0.284

Problem: Let us now turn to `AGAAAA`
Result: 0.559

Problem: Let us now turn to `AAUUAG`
Result: 0.404

Problem: Let us now turn to `GUUGUG`
Result: 0.225

Problem: Let us now turn to `AAAUUU`
Result: 0.596

Problem: Let us now turn to `GUGUGG`
Result: 0.0226

Problem: Let us now turn to `UAAAAC`
Result: 0.723

Problem: Let us now turn to `GAACAU`
Result: 0.466

Problem: Let us now turn to `CACUUU`
Result: 0.525

Problem: Let us now turn to `GAGGAG`
Result: 0.288

Problem: Let us now turn to `AAUAGC`
Result: 0.38

Problem: Let us now turn to `CGUAAA`
Result: 0.554

Problem: Let us now turn to `AGCAGC`
Result: 0.426

Problem: Let us now turn to `CCUGCG`
Result: -0.205

Problem: Let us now turn to `GUGUGU`
Result: 0.352

Problem: Let us now turn to `GGGGCC`
Result: -0.395

Problem: Let us now turn to `AUUCCG`
Result: 0.126

Problem: Let us now turn to `AUAAUG`
Result: 0.211

Problem: Let us now turn to `AUUAUA`
Result: 0.24

Problem: Let us now turn to `UAACAA`
Result: -0.143

Problem: Let us now turn to `GAUGCG`
Result: 0.0728

Problem: Let us now turn to `AGUCGU`
Result: 0.577

Problem: Let us now turn to `AAACAG`
Result: -0.248

Problem: Let us now turn to `AAGUCA`
Result: 0.838

Problem: Let us now turn to `AGGUAC`
Result: 0.133

Problem: Let us now turn to `GCACCU`
Result: 0.968

Problem: Let us now turn to `GUCCAA`
Result: 0.669

Problem: Let us now turn to `CUAAGC`
Result: 0.0548

Problem: Let us now turn to `CAUAGA`
Result: 1.17

Problem: Let us now turn to `GCCUUA`
Result: -0.138

Problem: Let us now turn to `UAUCAC`
Result: 0.645

Problem: Let us now turn to `AAACGU`
Result: 0.362

Problem: Let us now turn to `UCGGCG`
Result: 0.493

Problem: Let us now turn to `UAAGGG`
Result: 0.334

Problem: Let us now turn to `CUUCAC`
Result: 0.798

Problem: Let us now turn to `GACCAG`
Result: 0.136

Problem: Let us now turn to `CCGACU`
Result: 0.195

Problem: Let us now turn to `UACCCC`
Result: 0.567

Problem: Let us now turn to `GAGGGC`
Result: -0.0173

Problem: Let us now turn to `AAAGCU`
Result: -0.307

Problem: Let us now turn to `UUGACG`
Result: 0.486

Problem: Let us now turn to `UGUGCG`
Result: -0.404

Problem: Let us now turn to `AGGAGG`
Result: 0.0646

Problem: Let us now turn to `UGGUCA`
Result: 0.761

Problem: Let us now turn to `GUCAAA`
Result: 0.456

Problem: Let us now turn to `UUAGGG`
Result: 0.351

Problem: Let us now turn to `CGAUUU`
Result: 0.458

Problem: Let us now turn to `GCCUCG`
Result: 0.337

Problem: Let us now turn to `GAAAGC`
Result: 0.368

Problem: Let us now turn to `AUGUCU`
Result: 0.305

Problem: Let us now turn to `CAAAAG`
Result: 0.0525
